# testedSystem: NE transporter (Rattus norvegicus, UniProt Q63380)
# Sequence (Q63380 1-617): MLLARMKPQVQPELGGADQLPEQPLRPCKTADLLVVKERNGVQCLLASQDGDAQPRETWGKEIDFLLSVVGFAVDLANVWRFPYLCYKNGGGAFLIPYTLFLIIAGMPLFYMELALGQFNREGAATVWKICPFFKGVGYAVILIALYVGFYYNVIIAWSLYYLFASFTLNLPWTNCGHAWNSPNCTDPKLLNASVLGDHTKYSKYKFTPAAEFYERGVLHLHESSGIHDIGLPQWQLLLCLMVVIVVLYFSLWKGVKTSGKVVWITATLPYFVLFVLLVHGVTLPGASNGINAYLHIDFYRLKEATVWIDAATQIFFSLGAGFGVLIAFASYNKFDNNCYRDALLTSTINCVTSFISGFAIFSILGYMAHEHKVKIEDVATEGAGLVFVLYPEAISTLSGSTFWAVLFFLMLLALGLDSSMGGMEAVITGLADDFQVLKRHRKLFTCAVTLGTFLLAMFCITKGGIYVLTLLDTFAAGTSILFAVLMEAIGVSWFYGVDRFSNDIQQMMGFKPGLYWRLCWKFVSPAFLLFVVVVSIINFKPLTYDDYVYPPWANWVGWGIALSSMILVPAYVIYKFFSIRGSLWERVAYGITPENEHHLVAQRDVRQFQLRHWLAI
metric: pIC50
Answers are plain numbers, as −log10 of the molar value.

See these solved cases before continuing.
>>> val("CNCCC[C@]1(c2ccc(F)cc2)OCc2cc(C#N)ccc21 [(R)(−)-Desmethylcitalopram]")
6.04
>>> val("N#Cc1ccc2c(c1)CO[C@]2(CCCN)c1ccc(F)cc1 [(R)(−)-Didesmethylcitalopram]")
5.44
>>> val("CNCCC[C@@]1(c2ccc(F)cc2)OCc2cc(C#N)ccc21 [(S)(+)-Desmethylcitalopram]")
4.94
>>> val("N#Cc1ccc2c(c1)CO[C@@]2(CCCN)c1ccc(F)cc1 [(S)(+)-Didesmethylcitalopram]")
4.70

## Input Could you share which pIC50 value was measured for CN(C)CCCC1(c2ccc(F)cc2)OCc2cc(C#N)ccc21 (racemic) [Citalopram HBr (racemic), reference compound] ?
## Output 5.32

###

# Test system: NE uptake
# assayText: NE uptake, rat hypothalamus synaptosomes
# Type: biochemical
# experimentalConditions: Table 3, rat brain synaptosomes; read-out: Monoamine Uptake IC50 NE
metric: log10(IC50) (log10 of the value in nM)
Hey, these are logged values: log10 of IC50, nM being the unit before logging.

See these solved cases before continuing.
>>> val("N#Cc1ccc2c(c1)CO[C@@]2(CCCN)c1ccc(F)cc1 [(S)(+)-Didesmethylcitalopram]")
3.52
>>> val("CNCCC[C@]1(c2ccc(F)cc2)OCc2cc(C#N)ccc21 [(R)(−)-Desmethylcitalopram]")
3.23
>>> val("CNCCCC1c2ccccc2C=Cc2ccccc21 [Protriptyline, reference compound]")
0.36
>>> val("N#Cc1ccc2c(c1)CO[C@]2(CCCN)c1ccc(F)cc1 [(R)(−)-Didesmethylcitalopram]")
3.11
>>> val("CNCCC[C@@]1(c2ccc(F)cc2)OCc2cc(C#N)ccc21 [(S)(+)-Desmethylcitalopram]")
3.61

In the following, a different compound is considered.
## Input Could you share which log10(IC50) value was measured for CN(C)CCCC1(c2ccc(F)cc2)OCc2cc(C#N)ccc21 (racemic) [Citalopram HBr (racemic), reference compound] ?
## Output 3.69

###

# testedSystem: DA transporter (Rattus norvegicus)
# Sequence (P23977 whole entry): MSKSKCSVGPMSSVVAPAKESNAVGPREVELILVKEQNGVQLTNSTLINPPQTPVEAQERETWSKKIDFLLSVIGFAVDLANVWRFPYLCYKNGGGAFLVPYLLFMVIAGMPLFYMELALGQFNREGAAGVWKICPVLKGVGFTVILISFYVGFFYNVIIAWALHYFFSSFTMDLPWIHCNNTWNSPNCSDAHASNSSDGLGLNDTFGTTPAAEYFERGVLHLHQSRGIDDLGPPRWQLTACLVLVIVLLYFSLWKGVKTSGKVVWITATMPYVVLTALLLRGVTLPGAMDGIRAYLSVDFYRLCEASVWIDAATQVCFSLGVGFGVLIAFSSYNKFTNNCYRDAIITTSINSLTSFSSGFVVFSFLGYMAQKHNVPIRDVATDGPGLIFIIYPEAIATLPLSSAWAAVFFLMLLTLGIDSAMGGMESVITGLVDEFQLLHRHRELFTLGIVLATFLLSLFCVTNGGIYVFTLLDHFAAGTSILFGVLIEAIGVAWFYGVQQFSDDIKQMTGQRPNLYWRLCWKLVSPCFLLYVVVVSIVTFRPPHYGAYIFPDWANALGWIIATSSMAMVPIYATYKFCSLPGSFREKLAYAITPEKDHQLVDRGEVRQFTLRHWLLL
metric: IC50

>>> val("CNCCC[C@@]1(c2ccc(F)cc2)OCc2cc(C#N)ccc21 [(S)(+)-Desmethylcitalopram]")
"79.5 µM"

Provide IC50 values for the following items, in order.
1. N#Cc1ccc2c(c1)CO[C@@]2(CCCN)c1ccc(F)cc1 [(S)(+)-Didesmethylcitalopram]
2. N#Cc1ccc2c(c1)CO[C@]2(CCCN)c1ccc(F)cc1 [(R)(−)-Didesmethylcitalopram]
3. CNCCC[C@]1(c2ccc(F)cc2)OCc2cc(C#N)ccc21 [(R)(−)-Desmethylcitalopram]

## Output
71.1 µM
14.1 µM
58 µM

###

# testedSystem: DA transporter (h) (Homo sapiens, UniProt Q01959)
# Construct: expressed in transfected cells; host or cells: CHO cells
# Sequence (Q01959 whole entry): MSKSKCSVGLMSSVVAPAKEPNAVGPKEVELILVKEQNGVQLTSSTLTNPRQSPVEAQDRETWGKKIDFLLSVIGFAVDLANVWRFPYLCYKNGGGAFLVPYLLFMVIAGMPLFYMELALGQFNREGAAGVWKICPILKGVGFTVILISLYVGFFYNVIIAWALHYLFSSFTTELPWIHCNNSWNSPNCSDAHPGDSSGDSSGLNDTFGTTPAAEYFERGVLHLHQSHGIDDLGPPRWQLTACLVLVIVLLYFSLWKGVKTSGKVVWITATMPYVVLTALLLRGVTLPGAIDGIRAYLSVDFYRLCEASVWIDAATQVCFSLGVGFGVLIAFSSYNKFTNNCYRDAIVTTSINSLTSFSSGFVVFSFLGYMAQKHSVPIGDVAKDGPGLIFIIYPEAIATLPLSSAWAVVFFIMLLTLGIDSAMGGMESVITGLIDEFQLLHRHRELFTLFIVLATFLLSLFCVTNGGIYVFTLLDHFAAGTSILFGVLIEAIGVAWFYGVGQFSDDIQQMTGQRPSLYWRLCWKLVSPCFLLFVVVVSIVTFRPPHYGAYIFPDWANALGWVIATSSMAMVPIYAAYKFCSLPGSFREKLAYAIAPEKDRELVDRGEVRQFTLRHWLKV
# assayText: DA transporter (h) binding, [3H]GBR12935
# experimentalConditions: Table 1, racemic forms, duplicate; read-out: Transporter Binding IC50 DA
metric: IC50 (µM)
Give bare numbers, in µM.

Provide IC50 values for the following items, in order.
1. N#Cc1ccc2c(c1)COC2(CCCN)c1ccc(F)cc1 (racemic) [Racemic didesmethylcitalopram]
2. CNCCCC1(c2ccc(F)cc2)OCc2cc(C#N)ccc21 (racemic) [Racemic desmethylcitalopram]

## Output
1: 13.2; 2: 3.73

Origin of the recorded values: patent US7714023B2
